MEASURED_TARGET: T1, TJP3_3, O95049
T1 sequence (O95049 375-456, limits assumed, looked up): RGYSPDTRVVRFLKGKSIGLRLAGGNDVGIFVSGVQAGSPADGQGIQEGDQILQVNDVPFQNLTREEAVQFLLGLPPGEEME
TEST_METHOD_NOTES: holdup assay
Design: key: below the threshold = too weak to quantify, mostly under pKd 3.1 to 4
RUN_CONDITIONS: plain residues with an end cap or a label only (N-terminal biotin on a linker: ado-ado)
PROPERTY_NAME: pKd

Sample answers from the record:
VCMGDHWFDV [PRKN, O60260] :: 4.57
QLKSGRDSTV [TMEM178A, Q8NBL3] :: 3.5
PGKKPEDSRV [SLCO2B1, O94956] :: below the threshold
SQPLLVHDDV [KIT, P10721] :: below the threshold

Reported pKd of DAAHHDESNC [FMNL3, Q8IVF7] : below the threshold
